test: protein stability index of a GFP-peptide fusion (GPS, HEK-293T) (PSI 1-6); higher = more stable; conditions: treatment: DMSO; c terminus: a fixed tail appended;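 note: 24-mer peptide tiles fused after GFP, lentivirally expressed, FACS-sorted into six equal bins by GFP/DsRed ratio, decoded by Illumina sequencing, PSI is the read-weighted mean bin number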
Decide using protein stability index: a value greater than or equal to 3 is Criterion met, a smaller one is Criterion not met.

Worked set:
{"Biopolymer sequence": "EDAEAVEQLREALHEALLEYEAGR [ESRRA]", "Answer label": "Criterion met"}
{"Biopolymer sequence": "RLAELLLLETDAGPAASEGAEQPP [GADD45A]", "Answer label": "Criterion met"}
{"Biopolymer sequence": "LISCSEDGSVRIWELREKQQLAAE [WDR41]", "Answer label": "Criterion not met"}
{"Biopolymer sequence": "SEGEAMEICSEPVAASPAPAGERR [ZNF511]", "Answer label": "Criterion met"}
{"Biopolymer sequence": "PCGPNMSEVSCKKRDDYLEWPEYF [DCTD]", "Answer label": "Criterion met"}
{"Biopolymer sequence": "YQQLKLEGPGEQETKLDLISKGEE [SLC29A1]", "Answer label": "Criterion met"}

*Q* Does SPTIIFDNWIPLLWCANILGYAVS [DHCR7] have a reported protein stability index of at least 3?
*A* Criterion met

*Q* Does KPKPPPNSEGEQGPNGSQNSSYSQ [CCNC] have a reported protein stability index of at least 3?
*A* Criterion met

*Q* Does FDLNNLDPELKNLFDMCGISEAQL [WASL] have a reported protein stability index of at least 3?
*A* Criterion not met

*Q* Does QKLDAFLQPLSKPLSSQPQAIVTE [MLH1] have a reported protein stability index of at least 3?
*A* Criterion met

*Q* Does KGAVNLHMEEEVEDFLLKKPIVPT [CDC25A] have a reported protein stability index of at least 3?
*A* Criterion met

* * *

Give measured protein stability index for each item. Keep answers brief.
test: protein stability index of a GFP-peptide fusion (GPS, HEK-293T) (PSI 1-6); higher = more stable; conditions: treatment: MLN4924 1 uM, 8 h; c terminus: a fixed tail appended
Give bare numbers.

A selection of reference data follows.
{"Biopolymer sequence": "GSCSTVGGVGYGDSKDCILEPLSL [ZNF277]", "Outcome measure": "protein stability index", "Result number": 3.5}
{"Biopolymer sequence": "DPDGEEGSSIPWNHLPDPEIFRQR [ZNF24]", "Outcome measure": "protein stability index", "Result number": 5.02}
{"Biopolymer sequence": "EEEEGEEEELIRIFQEQQKKWQQY [FAM9B]", "Outcome measure": "protein stability index", "Result number": 4.13}
{"Biopolymer sequence": "GLTDVSQIITVTVQTGLDQYQQVP [IQUB]", "Outcome measure": "protein stability index", "Result number": 2.47}
{"Biopolymer sequence": "SDAWTYCISKNEWIQFNHPYTEKP [KLHDC2]", "Outcome measure": "protein stability index", "Result number": 2.37}
{"Biopolymer sequence": "LLLGSPHPAATALHAELCQAGSSQ [LPCAT4]", "Outcome measure": "protein stability index", "Result number": 3.18}
{"Biopolymer sequence": "VLRTYLELVLCVLVSIRNNRNLQK [FBXO33]", "Outcome measure": "protein stability index", "Result number": 2.64}
{"Biopolymer sequence": "ALGDAFADLSQKSPELQEEFGYNA [ARFIP2]", "Outcome measure": "protein stability index", "Result number": 4.63}

State recorded protein stability index for all listed sequences.
1. RPGPSASAASSAAAGEPLECPTCG [RNF208]
2. GVSFQAISSMADFWDFAQGPLLDS [PKD2L1]
3. STARRSRAASSQRAEEEDDDIKQL [CHMP4C]
4. VILFSSAVYFAEADDPTSGFSSIP [KCNA3]
5. EKALASILLQDHIRDLDVVVVSVA [ATL3]

*A*
1: 5.3; 2: 2.87; 3: 5.46; 4: 2.56; 5: 2.21

* * *

test: protein stability index of a GFP-peptide fusion (GPS, HEK-293T) (PSI 1-6); higher = more stable; conditions: treatment: MLN4924 1 uM, 8 h; c terminus: a fixed tail appended
Outcome measure: protein stability index
Give bare numbers.

A selection of reference data follows.
{"Biopolymer sequence": "LNATSKFMEFYQDVKDWWLFGFYF [EDNRA]", "Result number": 2.13}
{"Biopolymer sequence": "TLELCHDELFADLFNSNHKAGGAG [CEBPD]", "Result number": 4.24}
{"Biopolymer sequence": "HCVTSDPATSPLVLAIPRRLRVEL [TRIM35]", "Result number": 2.13}

State recorded protein stability index for all listed sequences.
1. CIPASSSFVYGAVPIGASIYVIGD [GAN]
2. EYRQKHGVPPLKLCKNLNREAQQY [GLIPR2]

*A*
2.48
3.4

State recorded protein stability index for all listed sequences.
1. NLASYDVCSILLGTSTLLVWVGVI [MCOLN1]
2. VQSLQLSPRTRGSWSQPQPLKAPC [RASAL3]

*A*
1: 3.19; 2: 3.68

* * *

experiment: protein stability index of a GFP-peptide fusion (GPS, HEK-293T) (PSI 1-6); higher = more stable; settings: treatment: DMSO; c terminus: a fixed tail appended
Outcome measure: protein stability index
Give bare numbers.

A selection of reference data follows.
{"Biopolymer sequence": "MSFLSRQQPPPPRRAGAACTLRQK [WEE1]", "protein stability index": 3.94}
{"Biopolymer sequence": "YARYSLKSIDPVLMAPTCVFLASK [CCNC]", "protein stability index": 2.16}
{"Biopolymer sequence": "CARMLYNYGADTNTRNYEGQTPLA [ASB7]", "protein stability index": 2.63}
{"Biopolymer sequence": "KQDLVPGSPDDSHPKDGPSPGGTL [DLC1]", "protein stability index": 5.53}
{"Biopolymer sequence": "KGTEKQTTSETQKSVQCGTWTKHA [NETO1]", "protein stability index": 4.84}

State recorded protein stability index for all listed sequences.
1. WSQPITTGKAPSPRAAHACATVGN [KLHDC2]
2. LPRKESPSVRSSKDGKLLAATLLL [TNFSF13B]

*A*
1: 3.84; 2: 2.26

* * *

Give measured protein stability index for each item. Keep answers brief.
assay: protein stability index of a GFP-peptide fusion (GPS, HEK-293T) (PSI 1-6); higher = more stable; conditions: treatment: DMSO; c terminus: a fixed tail appended
Numbers only.

{"Biopolymer sequence": "ISSIGQVQSYMEHYCNSSTDRRVL [SPACA9]", "Result number": 3.23}

State recorded protein stability index for all listed sequences.
1. GSQLPKPRMLRESGHGDAHLQEYA [FATE1]
2. FAWSQGHRTVKLVPWSQCLQNFLL [WSB1]
3. IYLSTSSSKFYDLFLMDLSEGELG [RHOBTB2]

*A*
[4.38, 1.99, 3.38]

State recorded protein stability index for all listed sequences.
1. RDLKPENILVTSGGTVKLADFGLA [CDK4]
2. PIIYFNDYWNLQKDYYPINESLAS [CLPTM1]
3. VFVLIDEVESLTAARNACRAGTEP [TRIP13]
4. SNYSLPPPLPTYHVLLEGEGLGQS [TRIM29]
5. FSQKSCLVAHQRYHTGKTPFVCPE [ZNF649]
6. LDHLSLGEEPVPHQQVEEALSFTL [NEK8]
7. PVESHIQKNKKILKSAKDLPPDAL [KMT2E]

*A*
1: 3.31; 2: 2.71; 3: 2.35; 4: 3.67; 5: 2.58; 6: 4.1; 7: 4.86

State recorded protein stability index for all listed sequences.
1. EETVTQDCLQLIADSETPTIQKGS [TNFSF13B]
2. KGLSVEFALLADKAAQQGKQEEND [SNX8]

*A*
1. 5.53
2. 5.24

* * *

Give measured protein stability index for each item. Keep answers brief.
test: protein stability index of a GFP-peptide fusion (GPS, HEK-293T) (PSI 1-6); higher = more stable; conditions: treatment: DMSO; c terminus: a fixed tail appended

State recorded protein stability index for all listed sequences.
1. HPRGWNDHVHILDTETFTWSQPIT [KLHDC2]
2. KQQLVDAFLKLAKQRSVCTWGKNK [FAN1]
3. ACGLSDVAHVESLQEKSQCALEEY [NR2F2]
4. SSVQSYPGSASLAQSRLEDPGADS [DLX1]
5. GCSQFRLAVLDWNQRAMDLYKALG [SAT2]
6. VKLPLPAERVTLADFKGVLQRPSY [DVL3]
7. LDAVENQLKWASWELHSLRHCDDD [ZNF24]
8. FPSLQVTAILIECGADVNVRDSDD [FEM1C]

*A*
1: 2.42; 2: 2.31; 3: 4.58; 4: 5.23; 5: 2.2; 6: 2.5; 7: 3.96; 8: 2.44

State recorded protein stability index for all listed sequences.
1. SPINMEDQERIKVERKRLRNRLAA [JUNB]
2. ILPKELQAWVQKHHPENGEETVTM [ZNF396]

*A*
1: 4.48; 2: 3.5

State recorded protein stability index for all listed sequences.
1. GEEAVTLVEDMQRELGRLRQQVTN [ZNF263]
2. CLIQKAQWTVGKLNCPFCGARLGG [RNF180]
3. RPPFETTNLKETYRCIREARYTMP [PLK2]

*A*
1. 4.1
2. 2.15
3. 2.72

State recorded protein stability index for all listed sequences.
1. VYTGKLLLNLVDHTEVVRDLTFAP [WSB1]
2. ESEDCKLPCNPCATTNASGNSCGP [KRT34]
3. PRRCHSAPPQGSCGDELPWTLQRR [PLEKHN1]
4. HRDLKPENLLLASKLKGAAVKLAD [CAMK2A]

*A*
2.2
5.21
4.79
3.67

State recorded protein stability index for all listed sequences.
1. SLKDHKVSFLRSGTKLIFRRRPRQ [C2CD2L]
2. FSAPDPPRPRPVSLSLRLPHQPVT [SMTNL2]
3. EVTADDRKVKSTITLDGGVLVHVQ [FABP4]
4. PGGLVGSADVVSPSGHSDAQTLAM [PPFIA4]
5. IIDCGDIVWSLAFGSSVPEKQSRC [WSB1]
6. GPGEPDVRDGFSATFEKILESELL [PSD2]
7. VTLLVALKVRYRERITILRGNHES [PPP2CA]

*A*
1. 3.24
2. 3.77
3. 3.7
4. 4.57
5. 2.12
6. 3.91
7. 2.78

State recorded protein stability index for all listed sequences.
1. ICMAQIAYSGNTSNLSYHLEKNHP [ZBED1]
2. CAACKTPIRNRAFYMEEGVPYCER [PDLIM7]

*A*
[2.3, 2.93]

State recorded protein stability index for all listed sequences.
1. MECPEGQLPISSENDSTPTVSTSE [TAF7L]
2. WFQRQYLSTPDSQSLRCDLIRYIC [INTS3]
3. KSPEMPVILEVSLEGSHDTANCEA [RTP4]

*A*
1. 5.46
2. 2.25
3. 4.85

State recorded protein stability index for all listed sequences.
1. EGQRQAQEYEALLNIKVKLEAEIA [KRT18]
2. FGVAVVITNQVVAQVDGAAMFAAD [RAD51]
3. AVPKRLLEIVGREGVSLTAVLTTH [HAGHL]

*A*
[3.94, 3.26, 2.5]

# credit: the supplement of paper PMC10567573
